# assay-summary: self-splicing fitness, log relative to wild type (ln ratio); higher = more splicing; Tetrahymena group I intron in knt gene, E. coli kanamycin selection, DiMSum; sequences stand for … in CUCUCU…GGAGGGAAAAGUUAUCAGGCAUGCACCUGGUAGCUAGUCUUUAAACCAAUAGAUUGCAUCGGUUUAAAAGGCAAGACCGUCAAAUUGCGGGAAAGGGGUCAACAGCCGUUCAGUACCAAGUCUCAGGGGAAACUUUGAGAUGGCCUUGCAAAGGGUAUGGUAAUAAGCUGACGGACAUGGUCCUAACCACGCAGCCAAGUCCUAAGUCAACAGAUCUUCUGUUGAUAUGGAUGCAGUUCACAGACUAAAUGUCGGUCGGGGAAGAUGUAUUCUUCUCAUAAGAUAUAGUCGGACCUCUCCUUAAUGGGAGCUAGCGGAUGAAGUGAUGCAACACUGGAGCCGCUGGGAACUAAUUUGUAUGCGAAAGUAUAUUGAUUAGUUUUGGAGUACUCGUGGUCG;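 further: selection with 25 µg/mL kanamycin versus none on LB agar overnight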
# study-conditions: 30 °C
measurement-type: self-splicing fitness (ln)
Numbers only.

Below, each entry is followed by its recorded self-splicing fitness (ln) result.
sequence_string=CUAGAGCAAUAUUACGUGCC measurement_type="self-splicing fitness (ln)" test_result=-2.84
sequence_string=CCCGAGCAAUAUUACGGUCA measurement_type="self-splicing fitness (ln)" test_result=-4.25
sequence_string=UACAAGCAAUAUUACGCCGG measurement_type="self-splicing fitness (ln)" test_result=-1.53

Need self-splicing fitness (ln) for each of these sequences.
1. GACCAGCAAUAUUACGAUAC
2. GUCCAGCAAUAUUACGCGUC
3. CUCCAGCAAUAUUACGGUUC
4. GAGAAGCAAUAUUACGAUUU
5. UAGAAGCAAUAUUACGGUCG
6. UGCAAGCAAUAUUACGUUUC
7. AAGCAGCAAUAUUACGGUAU
8. GGCAAGCAAUAUUACGGAUG

1. -0.984
2. -1.15
3. -2.51
4. -0.24
5. -0.229
6. -4.31
7. -1.55
8. -2.34

Need self-splicing fitness (ln) for each of these sequences.
1. GUAAAGCAAUAUUACGGACG
2. GAUGAGCAAUAUUACGAGUU
3. UGCAAGCAAUAUUACGAACG
4. UUUUAGCAAUAUUACGGGCA
5. CCCAAGCAAUAUUACGAAAG

[-1.06, -2.18, -0.0871, -1.86, -3.49]

====

Record form. Attribute: self-splicing fitness (ln). Fill in for each entry.
# assay-summary: self-splicing fitness, log relative to wild type (ln ratio); higher = more splicing; Tetrahymena group I intron in knt gene, E. coli kanamycin selection, DiMSum; sequences stand for … in CUCUCU…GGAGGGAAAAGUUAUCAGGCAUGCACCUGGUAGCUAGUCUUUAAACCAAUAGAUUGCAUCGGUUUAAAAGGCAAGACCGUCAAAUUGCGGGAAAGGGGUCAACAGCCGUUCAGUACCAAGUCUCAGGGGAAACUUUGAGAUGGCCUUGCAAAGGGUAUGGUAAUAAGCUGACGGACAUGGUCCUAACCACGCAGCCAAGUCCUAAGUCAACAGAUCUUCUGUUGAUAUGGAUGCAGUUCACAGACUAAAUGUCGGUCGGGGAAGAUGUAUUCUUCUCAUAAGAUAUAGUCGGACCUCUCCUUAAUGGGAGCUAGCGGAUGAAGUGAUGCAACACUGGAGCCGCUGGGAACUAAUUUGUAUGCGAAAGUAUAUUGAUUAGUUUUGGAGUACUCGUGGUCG
# study-conditions: 37 °C
Give bare numbers.

Below, each entry is followed by its recorded self-splicing fitness (ln) result.
sequence_string=CAGCAGCAAUAUUACGGUAA measurement_type="self-splicing fitness (ln)" test_result=-1.41
sequence_string=ACGCAGCAAUAUUACGUGCG measurement_type="self-splicing fitness (ln)" test_result=-2.85
sequence_string=CCACAGCAAUAUUACGGUAC measurement_type="self-splicing fitness (ln)" test_result=-2.55
sequence_string=UGCUAGCAAUAUUACGCGAC measurement_type="self-splicing fitness (ln)" test_result=-1.58
sequence_string=GUUUAGCAAUAUUACGUAAA measurement_type="self-splicing fitness (ln)" test_result=-0.672

Need self-splicing fitness (ln) for each of these sequences.
1. ACUUAGCAAUAUUACGGGCA
2. AAGAAGCAAUAUUACGUGGU
3. UUCGAGCAAUAUUACGAGUA

1: 0.0835; 2: -2.23; 3: -1.43
